Each entry below lists one item and its recorded protein stability index value.
B1: STK38L (parent)
chain: FCIDSENRIGNSGVEEIKGHPFFE

Variants of: B1
assay explanation: protein stability index of a GFP-peptide fusion (GPS, HEK-293T) (PSI 1-6); higher = more stable;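 also: lentivirally expressed fusions sorted by FACS into six bins by GFP to DsRed ratio, PSI derived from sequencing read proportions per bin multiplied by bin number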
measurement parameters: c terminus: a fixed tail appended
assay endpoint: protein stability index

INSERT INTO assay_data (residue_change, assay_endpoint, readout_value) VALUES
  ('R8G', 'protein stability index', 2.8),
  ('K18H', 'protein stability index', 2.34),
  ('S12M', 'protein stability index', 1.72),
  ('F1C', 'protein stability index', 2.84),
  ('E24P', 'protein stability index', 2.01),
  ('I9E', 'protein stability index', 3.42),
  ('I3D', 'protein stability index', 4.02),
  ('E16N', 'protein stability index', 2.06),
  ('P21R', 'protein stability index', 2.97),
  ('E16H', 'protein stability index', 2.22),
  ('E6S', 'protein stability index', 2.86),
  ('N11L', 'protein stability index', 1.65),
  ('I9M', 'protein stability index', 2.03),
  ('K18C', 'protein stability index', 2.82),
  ('E15I', 'protein stability index', 1.46),
  ('F1V', 'protein stability index', 3.77),
  ('E24C', 'protein stability index', 2.7),
  ('H20L', 'protein stability index', 2.69),
  ('C2G', 'protein stability index', 4.21),
  ('N7Y', 'protein stability index', 1.8),
  ('D4W', 'protein stability index', 1.84),
  ('C2S', 'protein stability index', 3.61),
  ('G10M', 'protein stability index', 2.11),
  ('G13A', 'protein stability index', 2.07),
  ('D4S', 'protein stability index', 1.3),
  ('H20T', 'protein stability index', 3.83),
  ('D4A', 'protein stability index', 2.09),
  ('F23A', 'protein stability index', 1.78),
  ('C2P', 'protein stability index', 2.39),
  ('G10C', 'protein stability index', 2.32),
  ('I3P', 'protein stability index', 1.85),
  ('I3E', 'protein stability index', 3.95),
  ('C2W', 'protein stability index', 2.62),
  ('H20K', 'protein stability index', 3.41),
  ('I9F', 'protein stability index', 1.9),
  ('G19V', 'protein stability index', 2.09),
  ('P21T', 'protein stability index', 2.91),
  ('C2A', 'protein stability index', 2.58),
  ('H20Y', 'protein stability index', 2.47),
  ('N11T', 'protein stability index', 1.81),
  ('V14L', 'protein stability index', 1.54),
  ('G13Q', 'protein stability index', 2.44),
  ('F1E', 'protein stability index', 4.61),
  ('N11A', 'protein stability index', 2.11),
  ('E16S', 'protein stability index', 1.85),
  ('E6R', 'protein stability index', 2);

The reported measurements were obtained from the supplement of paper PMC10567573.
